# System Under Test: LIMK2KD (Homo sapiens)
# Construct: The cDNA coding for LIMK2 residues 330 to 632 was PCR amplified; His6 (N, cleaved yes); made in house; host or cells: baculovirus; Sf9 for virus, TriEx insect cells for expression
# Assay Overview: Differential (dynamic) scanning fluorimetry (DSF) assay, LIMK2KD
# Type: binding
# Reported Conditions: LIMK2KD, compound 10 µM, single shot; read-out: TM Shift LIMK2 (K)
Decision: ΔTm at 10 µM >= 2 °C yields 1.0, all other cases yield 0.0.

Solved entries:
>  <Compound>
Cn1cc(-c2[nH]c3cc(NC(=O)[C@H](N)C4CCCCC4)cc4c3c2C=NNC4=O)cn1

>  <Label>
1.0

$$$$
>  <Compound>
COc1cc(OC)c(/C=C/S(=O)(=O)Cc2ccc(OC)c(NCC(=O)O)c2)c(OC)c1

>  <Label>
0.0

$$$$
>  <Compound>
Cc1ncc(-c2ccnc(Nc3ccc(S(C)(=O)=O)cc3)n2)n1C(C)C

>  <Label>
0.0

$$$$
>  <Compound>
COc1cc(Nc2c(C#N)cnc3cc(OCCCN4CCN(C)CC4)c(OC)cc23)c(Cl)cc1Cl [Bosutinib (SKI-606), Bosutinib]

>  <Label>
0.0

$$$$
>  <Compound>
Cc1ccc(F)c(NC(=O)Nc2ccc(-c3cccc4[nH]nc(N)c34)cc2)c1

>  <Label>
1.0

$$$$

[Q] Does `Cc1cn(-c2cc(NC(=O)c3ccc(C)c(Nc4nccc(-c5cccnc5)n4)c3)cc(C(F)(F)F)c2)cn1` have a reported ΔTm at 10 µM of at least 2 °C?
[A] 0.0

[Q] Does `CN1CC[C@H](c2c(O)cc(O)c3c(=O)cc(-c4ccccc4Cl)oc23)[C@H](O)C1` have a reported ΔTm at 10 µM of at least 2 °C?
[A] 0.0

[Q] Does `C#Cc1cccc(Nc2ncnc3cc(OC)c(OCCCCCCC(=O)NO)cc23)c1` have a reported ΔTm at 10 µM of at least 2 °C?
[A] 0.0

* * *

# System Under Test: LIMK2KD (Homo sapiens, UniProt P53671)
# Construct: The cDNA coding for LIMK2 residues 330 to 632 was PCR amplified; His6 (N, cleaved yes); made in house; host or cells: baculovirus; Sf9 for virus, TriEx insect cells for expression
# Sequence (P53671 330-632): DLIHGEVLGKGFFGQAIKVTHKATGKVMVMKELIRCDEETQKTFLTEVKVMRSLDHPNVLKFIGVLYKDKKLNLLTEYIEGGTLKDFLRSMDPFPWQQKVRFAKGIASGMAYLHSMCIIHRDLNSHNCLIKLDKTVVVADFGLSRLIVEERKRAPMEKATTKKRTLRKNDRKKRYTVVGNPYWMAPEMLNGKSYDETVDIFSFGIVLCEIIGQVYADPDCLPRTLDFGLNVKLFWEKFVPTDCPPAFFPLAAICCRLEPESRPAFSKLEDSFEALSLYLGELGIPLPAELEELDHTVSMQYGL
# Assay Overview: Differential (dynamic) scanning fluorimetry (DSF) assay, LIMK2KD
# Type: binding
# Reported Conditions: LIMK2KD, compound 10 µM, single shot
Assay Metric: TM Shift LIMK2 (K)

>  <Compound>
Oc1ccc2ccccc2c1SSc1c(O)ccc2ccccc12 [IPA-3]

>  <Test Result>
1.2 K

$$$$
>  <Compound>
O=C1NC(=O)C(=Cc2ccc(-c3ccc(F)cc3)o2)S1 (stereo in doubt) [CAY10505]

>  <Test Result>
2.3 K

$$$$
>  <Compound>
NC1(Cc2ccc(Cl)cc2)CCN(c2ncnc3[nH]ccc23)CC1 [CCT128930]

>  <Test Result>
1.0 K

$$$$

Batch request: TM Shift LIMK2 (K) per item, same order as input.
1. O=C(NCc1ccccc1)c1csc(Nc2ccncn2)n1 [Thiazovivin]
2. C=CC(=O)Nc1cccc(Sc2nc(Nc3ccc(N4CCN(C)CC4)cc3)ncc2Cl)c1 [WZ8040]
3. Nc1ncnc2c1c(-c1cnc3[nH]ccc3c1)nn2C1CCCC1 [PP121]
4. Cc1ccc(NC(=O)c2cccc(C(C)(C)C#N)c2)cc1Nc1ccc2ncn(C)c(=O)c2c1 [AZ 628]
5. O=c1[nH]c2ccc(Cl)cc2c(N[C@@H]2CN3CCC2CC3)c1-c1nc2ccccc2[nH]1 [CHIR-124]

[A]
1.0 K
5.2 K
2.7 K
1.2 K
-1.7 K

Batch request: TM Shift LIMK2 (K) per item, same order as input.
1. CCO.N#CC(=C(/N)Sc1ccccc1N)/C(C#N)=C(\N)Sc1ccccc1N [U0126-EtOH]
2. COc1ccc2c(Oc3ccc(NC(=O)c4c(C)n(CC(C)(C)O)n(-c5ccccc5)c4=O)nc3)ccnc2c1 [AMG-458]

[A]
1. 2.4 K
2. -0.8 K

Batch request: TM Shift LIMK2 (K) per item, same order as input.
1. Cc1cnc(Nc2ccc(N3CCN(C)CC3)cc2)nc1Nc1cccc(S(=O)(=O)NC(C)(C)C)c1 [TG101209]
2. O=c1cc(N2CCOCC2)oc2c1ccc1ccccc12 [NU7026]
3. CCCCCCCCCCCCc1ccc(S(=O)(=O)Nc2nncs2)cc1 [PHT-427]

[A]
1. 3.1 K
2. 3.0 K
3. 1.6 K

Batch request: TM Shift LIMK2 (K) per item, same order as input.
1. Nc1nc(N)c2nc(-c3cccc(O)c3)c(-c3cccc(O)c3)nc2n1 [TG100-115]
2. CCc1ccc(/C=C2/SC(=S)NC2=O)cc1 [10058-F4]
3. Cc1nc(NC(=O)N2CCC[C@H]2C(N)=O)sc1-c1csc(C(C)(C)C)n1 [A66]
4. NCC(=O)Nc1ccc(-n2nc(C(F)(F)F)cc2-c2ccc3c(ccc4ccccc43)c2)cc1 [OSU-03012 (AR-12)]
5. O=C(NCc1cccc(O)c1)Nc1nc(-c2ccncc2)cs1 [RKI-1447]
6. CC(C)(C)c1cc(C=C(C#N)C#N)cc(Br)c1O [AG-1024]

[A]
1: 2.4 K; 2: 1.7 K; 3: 1.0 K; 4: 0.8 K; 5: 0.8 K; 6: 4.3 K
